System: KB-3-1
assayOverview: Cytotoxic Profiling of Annotated Libraries Using Quantitative High-Throughput Screening (AID 1296008); further: nearly all actives have a fitted effect of over 60% in size; on max response: on the % scale 0 is the no-effect control and ±100 the full control effect
statedConditions: Five cell lines viability, CellTiter-Glo ATP luminescence, 48-72 h; active compounds read low
Results filed as inconclusive are left out.
propertyName: max response (%)

* COc1ccc(-c2nc3ccc(C4=NNC(=O)CC4C)cc3[nH]2)cc1 (configuration not stated) | -4.82
* CN(C)CCOc1ccc(C(=C(CCCl)c2ccccc2)c2ccccc2)cc1 | 7.38
* COc1cc(Nc2nc3ccccc3nc2NS(=O)(=O)c2ccc(NC(=O)c3ccc(C)c(OC)c3)cc2)cc(OC)c1 | 6.27
* CCNC(=O)CCCC=CC[C@@H]1[C@H](C=CC(O)CCc2ccccc2)[C@@H](O)C[C@@H]1O (some centres not stated) | 9.82
* N[C@@H](CC(=O)N1CCn2c(nnc2C(F)(F)F)C1)Cc1cc(F)c(F)cc1F | -6.59
* CC(C)[C@H](O)C(=O)N[C@@H](C)C(=O)N[C@@H]1C(=O)N(C)CCc2ccccc21 | -11.2
* COC(=O)N1CCN(Cc2cccc(NC(=O)Nc3ccc(C)nc3)c2F)CC1 | -23.5
* CN(C)CCOc1ccc(-c2nc(-c3ccc4c(c3)CCC4=NO)c(-c3ccncc3)[nH]2)cc1 | 2.27
* CNC(=O)[C@H](Cc1ccccc1)NC(=O)[C@H](CC(C)C)[C@H](CSc1cccs1)C(=O)NO | 2.61
* NC(=O)c1ccc(N(C(N)=O)c2c(F)cccc2F)nc1-c1ccc(F)cc1F | 7.33
* CN(C)CC[C@H](CSc1ccccc1)Nc1ccc(S(=O)(=O)NC(=O)c2ccc(N3CCN(Cc4ccccc4-c4ccc(Cl)cc4)CC3)cc2)cc1[N+](=O)[O-] | 2.51
* NC(=O)c1nnn(Cc2cc(Cl)c(C(=O)c3ccc(Cl)cc3)c(Cl)c2)c1N | -25.7
* N#CC(c1ccc(Cl)cc1)c1c(Cl)cc(-n2ncc(=O)[nH]c2=O)cc1Cl (configuration not stated) | 0.338
* CCCCC[C@H](O)C=C[C@H]1[C@H](O)CC(=O)[C@H]1CCCCCCC(=O)O | -2.88
* C=C[C@@H]1CN2CCC1C[C@@H]2C(O)c1ccnc2ccc(OC)cc12 (some centres not stated) | 7.83
* CCN(CCO)CCCOc1ccc2c(Nc3cc(CC(=O)Nc4cccc(F)c4)[nH]n3)ncnc2c1 | -29.8
* CN(CC=CC#CC(C)(C)C)Cc1cccc2ccccc12 | 4.31
* CCCCCCCCCCCCCC(=O)N[C@H](CO)[C@H](O)c1ccc([N+](=O)[O-])cc1 | 5.57
* C[C@@H](O)[C@H]1C(=O)N2C(C(=O)OCOC(=O)C(C)(C)C)=C(SC3CN(C4=NCCS4)C3)[C@H](C)[C@H]12 | 8.8
* C[C@@]1(C(=O)Nc2ccc(F)nc2)CCCN1c1nc(Nc2cc(C3CC3)[nH]n2)c2cccn2n1 | -30.1
* CC(NCCc1ccc(O)cc1)C(O)c1ccc(O)cc1 (configuration not stated) | -1.97
* COc1nc(C)cnc1NS(=O)(=O)c1cccnc1-c1ccc(-c2nnco2)cc1 | -0.147
* OC1CCC(Nc2ncc3nc(Nc4c(F)cc(F)cc4F)n([C@@H]4CCOC4)c3n2)CC1 (some centres not stated) | 8.34
* CN1CC(=O)N2C(Cc3c([nH]c4ccccc34)[C@H]2c2ccc3c(c2)OCO3)C1=O (some centres not stated) | -12.7
* C=C1c2cccc(O)c2C(O)=C2C(=O)[C@@]3(O)C(O)=C(C(N)=O)C(=O)[C@@H](N(C)C)[C@@H]3[C@@H](O)[C@H]12 | 1.29
* COc1ccc2c(c1)CC[C@H]1[C@@H]2CC[C@]2(C)[C@@H](NCCCCCCN3C(=O)C=CC3=O)CC[C@H]12 | -4.66
* CCCCOCCOc1nc(-c2ccc(C(=O)O)c(F)c2)sc1C | -5.21
* Cn1cc(-c2ccc3nnc(Sc4ccc5ncccc5c4)n3n2)cn1 | 3.63
* O=C(Nc1cccc2c(=O)cc(-c3nn[nH]n3)oc12)c1ccc(OCCCCc2ccccc2)cc1 | -16.8
* C[C@H]1O[C@@H](n2cc(F)c(=O)[nH]c2=O)[C@H](O)[C@H]1O | -15.3
* CNC(=O)c1c(-c2ccc(F)cc2)oc2cc(N(CCO)S(C)(=O)=O)c(C3CC3)cc12 | -0.402
* C#C[C@]1(O)CC[C@H]2[C@H]3CCc4cc(OC)ccc4[C@H]3CC[C@@]21C | -15.5
* Cc1cc2nc3c(=O)[nH]c(=O)nc-3n(CC(O)C(O)C(O)CO)c2cc1C (configuration not stated) | 9.48
* O[C@@H](COc1cccc2ncccc12)CN1CCN(C2c3ccccc3[C@@H]3[C@H](c4ccccc42)C3(F)F)CC1 (some centres not stated) | 2.31
* Cc1c(C(=O)Nc2ccc(N3C[C@@H](C)O[C@@H](C)C3)nc2)cccc1-c1ccc(OC(F)(F)F)cc1 | -8.91
* O=C(CC12CC3CC(CC(C3)C1)C2)Nc1cccc2nc(NCCNCCO)ccc12 | -12.7
* CCCCn1c(=O)n(Cc2ccccc2F)c(=O)c2[nH]c(Cc3ccc(NC(C)=O)cc3)nc21 | -6.11

---

Test system: HEK293
assayOverview: Cytotoxic Profiling of Annotated Libraries Using Quantitative High-Throughput Screening (AID 1296008); further: nearly all actives have a fitted effect of over 60% in size
statedConditions: Five cell lines viability, CellTiter-Glo ATP luminescence, 48-72 h
Results filed as inconclusive are left out. Active and inactive are the calls of the source. Calls follow the shape of the dose curve; as a rule, active = well fitted inhibition curve with a large enough effect; inconclusive = small, poorly fitted or top-dose-only effect; inactive = flat fitted curve, though single readings scatter.
Outcomes: active, inactive

* C[C@H](CCC(=O)O)[C@H]1CC[C@H]2[C@H]3[C@@H](CC[C@]12C)[C@@]1(C)CC[C@@H](O)C[C@H]1C[C@@H]3O | inactive
* C[C@@H](O)[C@H]1C(=O)N2C(C(=O)OCOC(=O)C(C)(C)C)=C(SC3CN(C4=NCCS4)C3)[C@H](C)[C@H]12 | inactive
* C[C@H]1O[C@@H](n2cc(F)c(=O)[nH]c2=O)[C@H](O)[C@H]1O | active
* CN(C(Cc1ccc(OS(=O)(=O)c2cccc3cnccc23)cc1)C(=O)N1CCN(c2ccccc2)CC1)S(=O)(=O)c1cccc2cnccc12 (stereo not given) | active
* O=C(O)Cc1cccc(OCCCN(Cc2cccc(C(F)(F)F)c2Cl)CC(c2ccccc2)c2ccccc2)c1 | active
* NC(=O)c1noc([C@H](CCCC2CCCCC2)CC(=O)NO)n1 | active
* NC(=O)c1nnn(Cc2cc(Cl)c(C(=O)c3ccc(Cl)cc3)c(Cl)c2)c1N | active
* N#Cc1c(N(CC(=O)O)CC(=O)O)sc(C(=O)O)c1CC(=O)O | inactive
* C[C@H]1[C@H](O)O[C@@H]2O[C@@]3(C)CC[C@@H]4[C@H](C)CC[C@@H]1[C@@]24OO3 | active
* O=c1cc(-c2ccc(O)c(O)c2)oc2cc(O)cc(O)c12 | inactive
* COc1cc2ncnc(Nc3cc(Br)c(O)c(Br)c3)c2cc1OC | inactive
* CC[C@H](CC#N)OC(=O)N[C@@H](C)c1cccc(NC(=O)Nc2ccc(-c3cnco3)c(OC)c2)c1 | active
* O=C(Nc1cccc2c(=O)cc(-c3nn[nH]n3)oc12)c1ccc(OCCCCc2ccccc2)cc1 | active
* Cc1cnc(-c2cc(N3CCN(C(=O)CCS(C)(=O)=O)CC3)ncc2Cl)c(C)c1 | inactive
* NS(=O)(=O)c1ccc(Nc2nc(OCC3CCCCC3)c3[nH]cnc3n2)cc1 | active
* COc1c(C)c2c(c(O)c1CC=C(C)CCC(=O)OCCN1CCOCC1)C(=O)OC2 | active
* CC(C)(OCc1nn(Cc2ccccc2)c2ccccc12)C(=O)O | inactive
* Fc1ccc(CNc2ncnc3ccc(F)cc23)cc1 | active
* CCN(CC)CCCCNc1nc2cc(Cl)c(Cl)cc2nc1-c1ccc(-c2cccs2)s1 | active
* O=C(Nc1cccc(Cl)c1)Nc1ncc(CCNc2ncnc3ccsc23)s1 | active
* CN[C@@H]1CN(c2ccc3c(=O)c(C(=O)O)cn(-c4nccs4)c3n2)C[C@@H]1OC | active
* NS(=O)(=O)c1cc(Cl)c(Cl)c(S(N)(=O)=O)c1 | inactive
* COc1ccc2cc1Oc1ccc(cc1)C[C@H]1c3cc(c(OC)cc3CCN1C)Oc1c(OC)c(OC)cc3c1[C@H](C2)N(C)CC3 | active
* Cc1ccc(NC(=O)Nc2cc(C(F)(F)F)ccc2F)cc1Nc1ccc2c(c1)NC(=O)C2=Cc1ccc[nH]1 | active
* COc1ccc(-c2cc(=O)c3c(O)cc(O[C@@H]4O[C@H](CO[C@@H]5O[C@@H](C)[C@H](O)[C@@H](O)[C@@H]5O)[C@@H](O)[C@H](O)[C@@H]4O)cc3o2)cc1O | inactive
* CNc1nc(-c2ccc3c(N)n[nH]c3c2)cc(N2C[C@@H](C(=O)NC3CCCCC3)CC[C@@H]2C)n1 | active
* COC(=O)Nc1ccc(-c2nc(N3CCOCC3)c3cnn(C4CCN(C(=O)OC)CC4)c3n2)cc1 | active
* O=C(c1ccc(F)c(F)c1Nc1ccc(I)cc1F)N1CC(O)([C@H]2CCCCN2)C1 | active
* CC(O)=C(C#N)C(=O)Nc1ccc(C(F)(F)F)cc1 | active
* C[C@@]1(C(=O)Nc2ccc(F)nc2)CCCN1c1nc(Nc2cc(C3CC3)[nH]n2)c2cccn2n1 | active
* CCN1C[C@H](C)n2c(c(O)c3c(=O)n(Cc4ccc(F)c(Cl)c4)nc(C(=O)NC)c32)C1=O | inactive
* O=C(O)C1=CO[C@@H](O[C@@H]2O[C@H](CO)[C@H](O)[C@H](O)[C@H]2O)[C@@H]2C(CO)=CC[C@H]12 | inactive
* O=C(O)CCNc1cc(N2CCc3ccccc3CC2)nc(-c2ccccn2)n1 | inactive
* CC[C@]1(O)C[C@H]2CN(CCC3=c4ccccc4=N[C]3[C@@](C(=O)OC)(c3cc4c(cc3OC)N(C)[C@H]3[C@@](O)(C(N)=O)[C@H](O)[C@]5(CC)C=CCN6CC[C@]43[C@@H]65)C2)C1 | active
* CC1CNc2c(cccc2S(=O)(=O)N[C@@H](CCCN=C(N)N)C(=O)N2CC[C@@H](C)C[C@@H]2C(=O)O)C1 (stereo not given in full) | inactive
